Could you please report measured pIC50 for the items listed next?
test system: 282377-053-R-J1-PDC complex spheroid viability; assay: Anticancer human tumor 282377-053-R-J1-PDC patient-derived colon adenocarcinoma cell line growth inhibition [RAS]; settings: curve of first compound; second compound 0.316 µM
pIC50: −log10 of the molar value.

Exercise: // fetch pIC50 given entry CC1(O)CCCC1n1c(=O)c(C(F)F)cc2cnc(NC3CCN(S(C)(=O)=O)CC3)nc21 (centres undefined) + C=CC(=O)N1CCN(c2nc(OCC3CCCN3C)nc3c(F)c(-c4nc(N)cc(C)c4C(F)(F)F)c(Cl)cc23)C(C)C1
Key: 5.21

Exercise: // fetch pIC50 given entry CC(C)NCC(C(=O)N1CCN(c2ncnc3c2C(C)CC3O)CC1)c1ccc(Cl)cc1 (centres undefined) + C=CC(=O)N1CCN(c2nc(OCC3CCCN3C)nc3c(F)c(-c4nc(N)cc(C)c4C(F)(F)F)c(Cl)cc23)C(C)C1
Key: < 5.00

Exercise: // fetch pIC50 given entry CC(C)NCC(C(=O)N1CCN(c2ncnc3c2C(C)CC3O)CC1)c1ccc(Cl)cc1 (centres undefined) + C#Cc1c(F)ccc2cc(O)cc(-c3ncc4c(N5CC6CCC(C5)N6)nc(OCC56CCCN5CC(F)C6)nc4c3F)c12
Key: < 5.00

Exercise: // fetch pIC50 given entry CC(=O)OC12COC1CC(O)C1(C)C(=O)C(O)C3=C(C)C(OC(=O)C(O)C(NC(=O)OC(C)(C)C)c4ccccc4)CC(O)(C(OC(=O)c4ccccc4)C21)C3(C)C (centres undefined) + C#Cc1c(F)ccc2cc(O)cc(-c3ncc4c(N5CC6CCC(C5)N6)nc(OCC56CCCN5CC(F)C6)nc4c3F)c12
Key: > 7.50

====

Test system: 282377-053-R-J1-PDC complex spheroid viability
Test: Anticancer human tumor 282377-053-R-J1-PDC cell line growth inhibition [RAS];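 further: spheroids exposed to agents for seven days before readout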;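 on viability, T/C: luminescence viability as percent of DMSO vehicle control wells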
Conditions: second compound 0.316 µM; first compound 1 µM; stronger effect = lower value
From the text: RAS pathway inhibitors in Combinations in Complex Spheroids A high-throughput screen of multi-cell type tumor spheroids was designed to identify active combinations of RAS pathway inhibitors and targeted small molecules. Complex spheroids include a stromal component modeled by human endothelial cells (HUVEC) and fibroblasts modeled by human mesenchymal stem cells (MSCs). […] Compounds. […] If the clinical Cmax for an agent had not been determined, the highest concentration tested was 10 microM. […]
Could you please report measured viability, T/C for the items listed next?
Your answer is read as %, so omit the unit and give the number.

Exercise: // fetch viability, T/C given entry CCC(CC)c1cc(NC2CCC(N)C2)n2nccc2n1 (stereo not given) + C=CC(=O)N1CCN(c2nc(OCC3CCCN3C)nc3c(F)c(-c4nc(N)cc(C)c4C(F)(F)F)c(Cl)cc23)C(C)C1
Key: 100

Exercise: // fetch viability, T/C given entry NC1c2ccccc2OC12CCN(c1cnc3c(N4CCCc5ncccc54)n[nH]c3n1)CC2 (stereo not given) + C#Cc1c(F)ccc2cc(O)cc(-c3ncc4c(N5CC6CCC(C5)N6)nc(OCC56CCCN5CC(F)C6)nc4c3F)c12
Key: 95.6

Exercise: // fetch viability, T/C given entry CC(C)NCC(C(=O)N1CCN(c2ncnc3c2C(C)CC3O)CC1)c1ccc(Cl)cc1 (stereo not given) + C#Cc1c(F)ccc2cc(O)cc(-c3ncc4c(N5CC6CCC(C5)N6)nc(OCC56CCCN5CC(F)C6)nc4c3F)c12
Key: 83

Exercise: // fetch viability, T/C given entry Nc1ccn(C2OC(CO)C(O)C2(F)F)c(=O)n1 (stereo not given) + C#Cc1c(F)ccc2cc(O)cc(-c3ncc4c(N5CC6CCC(C5)N6)nc(OCC56CCCN5CC(F)C6)nc4c3F)c12
Key: 42.3

Exercise: // fetch viability, T/C given entry C=CC(=O)Nc1cc(Nc2nccc(-c3cn(C)c4ccccc34)n2)c(OC)cc1N(C)CCN(C)C + C#Cc1c(F)ccc2cc(O)cc(-c3ncc4c(N5CC6CCC(C5)N6)nc(OCC56CCCN5CC(F)C6)nc4c3F)c12
Key: 85.9

Exercise: // fetch viability, T/C given entry CCC(CC)c1cc(NC2CCC(N)C2)n2nccc2n1 (stereo not given) + C#Cc1c(F)ccc2cc(O)cc(-c3ncc4c(N5CC6CCC(C5)N6)nc(OCC56CCCN5CC(F)C6)nc4c3F)c12
Key: 96.9

Exercise: // fetch viability, T/C given entry C[C@@H](NC(=O)c1ncnc(N)c1Cl)c1ncc(C(=O)Nc2cc(C(F)(F)F)c(Cl)cn2)s1 + C#Cc1c(F)ccc2cc(O)cc(-c3ncc4c(N5CC6CCC(C5)N6)nc(OCC56CCCN5CC(F)C6)nc4c3F)c12
Key: 91.2

Exercise: // fetch viability, T/C given entry NC1c2ccccc2OC12CCN(c1cnc3c(N4CCCc5ncccc54)n[nH]c3n1)CC2 (stereo not given) + C=CC(=O)N1CCN(c2nc(OCC3CCCN3C)nc3c(F)c(-c4nc(N)cc(C)c4C(F)(F)F)c(Cl)cc23)C(C)C1
Key: 96.5

Exercise: // fetch viability, T/C given entry Cc1nc(N2CCC3(CC2)COC(C)C3N)c(CO)nc1Sc1ccnc(N)c1Cl (stereo not given) + C=CC(=O)N1CCN(c2nc(OCC3CCCN3C)nc3c(F)c(-c4nc(N)cc(C)c4C(F)(F)F)c(Cl)cc23)C(C)C1
Key: 101

Exercise: // fetch viability, T/C given entry C=CC(=O)N1CCN(c2nc(OCC3CCCN3C)nc3c(F)c(-c4nc(N)cc(C)c4C(F)(F)F)c(Cl)cc23)C(C)C1 (stereo not given) + C#Cc1c(F)ccc2cc(O)cc(-c3ncc4c(N5CC6CCC(C5)N6)nc(OCC56CCCN5CC(F)C6)nc4c3F)c12
Key: 104

====

Could you please report measured IC50 for the items listed next?
test system: 282377-053-R-J1-PDC complex spheroid viability; experiment: Anticancer human tumor 282377-053-R-J1-PDC cell line growth inhibition [RAS]; settings: curve of first compound; second compound 0.3 µM;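 further: spheroids exposed to agents for seven days before readout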
Your answer is read as µM, so omit the unit and give the number.

Exercise: // fetch IC50 given entry CC1(O)CCCC1n1c(=O)c(C(F)F)cc2cnc(NC3CCN(S(C)(=O)=O)CC3)nc21 (centres undefined) + CCn1c(-c2cc(N3CCN(C)CC3)cnc2C(C)OC)c2c3cc(ccc31)-c1csc(n1)CC(NC(=O)C1CC1C)C(=O)N1CCCC(N1)C(=O)OCC(C)(C)C2
Key: 7.08

Exercise: // fetch IC50 given entry CCc1c2c(nc3ccc(O)cc13)-c1cc3c(c(=O)n1C2)COC(=O)[C@]3(O)CC + CCn1c(-c2cccnc2C(C)OC)c2c3cc(ccc31)N1CCOC(CC(NC(=O)C(C(C)C)N(C)C(=O)C3(F)CCN(C(=O)C#CC(C)(C)N(C)C)CC3)C(=O)N3CCCC(N3)C(=O)OCC(C)(C)C2)C1
Key: 0.182

====

test system: 282377-053-R-J1-PDC complex spheroid viability; experiment: Anticancer human tumor 282377-053-R-J1-PDC cell line growth inhibition [RAS]; details: second compound 0.0316 µM; first compound 1 µM; stronger effect = lower value;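 further: spheroids exposed to agents for seven days before readout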;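 on viability, T/C: luminescence viability as percent of DMSO vehicle control wells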
Label yes when viability, T/C is strictly below 80%; at or above that, label no.

Exercise: Field: below-cutoff. Rule: recorded viability, T/C strictly less than 80%. Subject: CCC(CC)c1cc(NC2CCC(N)C2)n2nccc2n1 (stereo not given) + C=CC(=O)N1CCN(c2nc(OCC3CCCN3C)nc3c(F)c(-c4nc(N)cc(C)c4C(F)(F)F)c(Cl)cc23)C(C)C1
Key: no

Exercise: Field: below-cutoff. Rule: recorded viability, T/C strictly less than 80%. Subject: Cc1nc(N2CCC3(CC2)COC(C)C3N)c(CO)nc1Sc1ccnc(N)c1Cl (stereo not given) + C=CC(=O)N1CCN(c2nc(OCC3CCCN3C)nc3c(F)c(-c4nc(N)cc(C)c4C(F)(F)F)c(Cl)cc23)C(C)C1
Key: no

Exercise: Field: below-cutoff. Rule: recorded viability, T/C strictly less than 80%. Subject: Nc1ccn(C2OC(CO)C(O)C2(F)F)c(=O)n1 (stereo not given) + C=CC(=O)N1CCN(c2nc(OCC3CCCN3C)nc3c(F)c(-c4nc(N)cc(C)c4C(F)(F)F)c(Cl)cc23)C(C)C1
Key: yes

Exercise: Field: below-cutoff. Rule: recorded viability, T/C strictly less than 80%. Subject: Cc1nc(N2CCC3(CC2)COC(C)C3N)c(CO)nc1Sc1ccnc(N)c1Cl (stereo not given) + C#Cc1c(F)ccc2cc(O)cc(-c3ncc4c(N5CC6CCC(C5)N6)nc(OCC56CCCN5CC(F)C6)nc4c3F)c12
Key: no

Exercise: Field: below-cutoff. Rule: recorded viability, T/C strictly less than 80%. Subject: CC(C)NCC(C(=O)N1CCN(c2ncnc3c2C(C)CC3O)CC1)c1ccc(Cl)cc1 (stereo not given) + C#Cc1c(F)ccc2cc(O)cc(-c3ncc4c(N5CC6CCC(C5)N6)nc(OCC56CCCN5CC(F)C6)nc4c3F)c12
Key: no
